Conditions: in furfural, 314.97 K
quantity.name: solubility (mole fraction)

1. CCCCCCCC[n+]1csc2ccccc21.F[P-](F)(F)(F)(F)F :: 0.745

---

Settings: in water, 362.95 K
quantity.name: solubility (mole fraction)

1) CCCCCC[n+]1csc2ccccc21.F[P-](F)(F)(F)(F)F :: 0.000659

---

Conditions: in furfural, 284.65 K
quantity.name: solubility (mole fraction)

1. CCCCC[n+]1csc2ccccc21.F[P-](F)(F)(F)(F)F :: 0.0981
2. CCCCCCC[n+]1csc2ccccc21.F[P-](F)(F)(F)(F)F :: 0.318
